A collection of compounds and their measured IC50
- Study Target: Human plasma kallikrein (Homo sapiens (Human), UniProt P03952)
- Sequence (P03952 391-638): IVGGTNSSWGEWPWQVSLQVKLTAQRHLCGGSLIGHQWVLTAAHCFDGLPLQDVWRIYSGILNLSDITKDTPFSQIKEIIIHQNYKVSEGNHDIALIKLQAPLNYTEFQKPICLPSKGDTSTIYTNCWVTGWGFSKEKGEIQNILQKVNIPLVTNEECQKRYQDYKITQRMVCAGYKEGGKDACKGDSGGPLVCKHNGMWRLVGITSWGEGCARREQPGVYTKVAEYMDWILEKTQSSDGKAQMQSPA
- Sequence (P03952 20-390 partner): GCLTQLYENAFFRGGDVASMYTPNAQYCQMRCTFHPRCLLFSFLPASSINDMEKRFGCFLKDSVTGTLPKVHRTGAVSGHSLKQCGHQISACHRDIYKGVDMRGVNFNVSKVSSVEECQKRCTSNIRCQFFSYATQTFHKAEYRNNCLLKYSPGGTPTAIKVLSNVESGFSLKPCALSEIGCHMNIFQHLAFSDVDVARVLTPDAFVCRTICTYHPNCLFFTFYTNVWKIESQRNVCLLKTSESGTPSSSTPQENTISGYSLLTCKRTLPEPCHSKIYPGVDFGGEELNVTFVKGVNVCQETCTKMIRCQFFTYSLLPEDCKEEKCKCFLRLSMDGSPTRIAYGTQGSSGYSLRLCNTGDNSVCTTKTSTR
- Measurement Notes: Kallikrein Assay (fluorogenic substrate Acetyl-K-P-R-AFC)
- Test Settings: Plasma Kallikrein (PKal)
Measured Endpoint: IC50 (nM)

compound="Cc1cc(C(C)n2cc(NC(=O)c3nc(-c4c(C(F)F)ccc(Cl)c4F)cnc3C(C)O)cn2)nnc1N1C[C@H]2C[C@H]2C1=O (single isomer, unassigned) [Example 230]" measured_endpoint=IC50 result_units=nM reported=1.1
compound=Cc1nc([C@H](C)n2cc(NC(=O)c3nc(-c4c(C(F)F)ccc(Cl)c4F)cnc3C)cn2)ncc1N1C[C@H]2C[C@H]2C1=O measured_endpoint=IC50 result_units=nM reported=0.9
compound="Cc1ncc(-c2c(C(F)F)ccc(Cl)c2F)nc1C(=O)Nc1cnn(C(C)c2cnc(N3C[C@H]4C[C@H]4C3=O)c3c2OCO3)c1 (single isomer, unassigned) [Example 253]" measured_endpoint=IC50 result_units=nM reported=2.2

* * *

Measured IC50 (human Factor XIa (Homo sapiens (Human)))
Measured Endpoint: IC50 (nM)

compound="Cc1cc(N2C[C@H]3C[C@H]3C2=O)ncc1C(C)n1cc(NC(=O)c2nc(-c3c(C(F)F)ccc(Cl)c3F)cnc2CO)cn1 (single isomer, unassigned) [Example 203]" measured_endpoint=IC50 result_units=nM reported=282
compound="Cc1nc(N2C[C@H]3C[C@H]3C2=O)ncc1Cn1cc(NC(=O)c2nc(-c3c(C(F)F)ccc(Cl)c3F)cnc2CO)cn1 [Example 156]" measured_endpoint=IC50 result_units=nM reported=162
compound="Cc1ncc(-c2c(C(F)F)ccc(Cl)c2F)nc1C(=O)Nc1cnn(C(CO)c2cnc(N3C[C@H]4C[C@H]4C3=O)nc2)c1 (single isomer, unassigned) [Example 164]" measured_endpoint=IC50 result_units=nM reported=4890
compound="Cc1cc([C@@H](C)n2cc(NC(=O)c3nc(-c4c(OC(F)F)ccc(Cl)c4F)cnc3C)cn2)nnc1N1C[C@H]2C[C@H]2C1=O [Example 40]" measured_endpoint=IC50 result_units=nM reported=255
compound="Cc1cc(C(C)n2cc(NC(=O)c3nc(-c4c(C(F)F)ccc(Cl)c4F)cnc3C)cn2)cnc1N1C[C@H]2C[C@H]2C1=O (single isomer, unassigned) [Example 120]" measured_endpoint=IC50 result_units=nM reported=149
compound="COc1nc(N2C[C@H]3C[C@H]3C2=O)ncc1Cn1cc(NC(=O)c2nc(-c3c(C(F)F)ccc(Cl)c3F)cnc2C)cn1 [Example 95]" measured_endpoint=IC50 result_units=nM reported=4590

* * *

- Study Target: human Factor XIa (Homo sapiens (Human), UniProt P03951)
- Sequence (P03951 388-625 limits assumed): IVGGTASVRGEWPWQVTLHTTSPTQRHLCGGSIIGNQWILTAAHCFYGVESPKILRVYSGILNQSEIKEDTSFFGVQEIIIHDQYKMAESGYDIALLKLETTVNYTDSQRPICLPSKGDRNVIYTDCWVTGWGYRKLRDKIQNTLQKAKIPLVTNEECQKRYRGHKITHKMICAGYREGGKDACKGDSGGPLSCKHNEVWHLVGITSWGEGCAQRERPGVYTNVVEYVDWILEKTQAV
- Sequence (P03951 19-387 partner limits assumed): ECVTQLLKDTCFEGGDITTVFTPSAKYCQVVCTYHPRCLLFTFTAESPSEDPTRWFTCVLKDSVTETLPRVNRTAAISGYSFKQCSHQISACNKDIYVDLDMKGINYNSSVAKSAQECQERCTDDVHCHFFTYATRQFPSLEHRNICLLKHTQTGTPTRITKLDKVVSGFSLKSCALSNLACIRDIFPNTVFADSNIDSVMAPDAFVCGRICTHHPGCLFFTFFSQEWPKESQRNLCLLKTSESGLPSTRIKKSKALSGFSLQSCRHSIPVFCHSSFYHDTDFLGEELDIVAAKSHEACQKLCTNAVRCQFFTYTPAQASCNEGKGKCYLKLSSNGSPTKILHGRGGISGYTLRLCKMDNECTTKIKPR
pIC50: −log10 of the molar value.
A collection of molecules and their measured pIC50
Measured Endpoint: pIC50

molecule="CC(c1cnc(N2C[C@H]3C[C@H]3C2=O)c(C(F)F)c1)n1cc(NC(=O)c2cncc(-c3c(C(F)F)ccc(Cl)c3F)n2)cn1 (single isomer, unassigned)" qualifier_symbol== reported=5.10
molecule=Cc1ncc(-c2c(C(F)F)ccc(Cl)c2F)nc1C(=O)Nc1cnn(Cc2cnc(N3C[C@H]4C[C@H]4C3=O)c(Cl)c2)c1 qualifier_symbol== reported=6.28
molecule="CCc1ncc(-c2c(C(F)F)ccc(Cl)c2F)nc1C(=O)Nc1cnn(C(C)c2cnc(N3C[C@H]4C[C@H]4C3=O)c(C)c2)c1 (mixture of isomers)" qualifier_symbol== reported=6.03
molecule=CCc1ncc(-c2c(C(F)F)ccc(Cl)c2F)nc1C(=O)Nc1cnn(Cc2cc(C)c(N3C[C@H]4C[C@H]4C3=O)nn2)c1 qualifier_symbol== reported=5.92
molecule=C=Cc1ncc(-c2c(C(F)F)ccc(Cl)c2F)nc1C(=O)Nc1cnn(Cc2cnc(N3C[C@H]4C[C@H]4C3=O)nc2C)c1 qualifier_symbol== reported=5.31
molecule=Cc1nc(N2CCN(C)C2=O)ncc1[C@H](C)n1cc(NC(=O)c2nc(-c3c(C(F)F)ccc(Cl)c3F)cnc2C)cn1 qualifier_symbol== reported=5.48
molecule=C[C@@H](c1cnc(N2C[C@H]3C[C@H]3C2=O)nc1)n1cc(NC(=O)c2nc(-c3c(C(F)F)ccc(Cl)c3F)cnc2CC(C)(C)O)cn1 qualifier_symbol== reported=5.31
molecule=Cc1nc([C@@H](C)n2cc(NC(=O)c3nc(-c4c(C(F)F)ccc(Cl)c4F)cnc3C)cn2)ncc1N1C[C@H]2C[C@H]2C1=O qualifier_symbol=< reported=5.00
molecule=Cc1ccc(Cl)c(F)c1-c1cnc(C)c(C(=O)Nc2cnn(Cc3nnc(N4C[C@H]5C[C@H]5C4=O)c(C)c3C)c2)n1 qualifier_symbol== reported=5.92
molecule="CC(c1ccc(N2C[C@H]3C[C@H]3C2=O)nc1)n1cc(NC(=O)c2cncc(-c3c(C#N)ccc(Cl)c3F)n2)cn1 (single isomer, unassigned)" qualifier_symbol=< reported=5.00
molecule="Cc1cc(C(C)n2cc(NC(=O)c3nc(-c4c(C(F)F)ccc(Cl)c4F)cnc3C(C)O)cn2)cnc1N1C[C@H]2C[C@H]2C1=O (single isomer, unassigned) [Example 210]" qualifier_symbol== reported=6.73
molecule="Cc1cc(C(C)n2cc(NC(=O)c3nc(-c4c(C#N)ccc(Cl)c4F)cnc3C)cn2)nnc1N1C[C@H]2C[C@H]2C1=O (single isomer, unassigned) [Example 236]" qualifier_symbol== reported=6.12
